I'd appreciate it if you could supply inhibition values for the items below.
- System: Prunus dulcis
- Run Description: Percent inhibition against Beta Glucosidase from Almonds at 1 mM

Task: Can you look up inhibition on Prunus dulcis for OC1C=CC(NCc2ccc(-c3ccccc3)cc2)C(O)C1O (stereo in doubt; 4i) ?
Result: 97%

Task: Record: CCCCCCNC1C=CC(O)C(O)C1O (racemic)
Result: 92%

Task: Record: COc1ccc(CNC2C=CC(O)C(O)C2O)cc1 (stereo in doubt; 4g)
Result: 95%

Task: Record: OC1C=CC(NCc2ccc(Cl)cc2)C(O)C1O (stereo in doubt; 4h)
Result: 96%

Task: Record: OC1C=CC(NCc2ccccc2)C(O)C1O (stereo in doubt)
Result: 51%

Task: Record: OC1C=CC(NCc2ccc(Cl)cc2)C(O)C1O (stereo in doubt)
Result: 51%

Task: Record: CCCCCCCCNC1C=CC(O)C(O)C1O (racemic)
Result: 85%

Task: Record: OC1C=CC(NCc2ccc(-c3ccccc3)cc2)C(O)C1O (stereo in doubt)
Result: 56%

Task: Record: Oc1ccc(CNC2C=CC(O)C(O)C2O)cc1 (stereo in doubt; 4f)
Result: 93%

Task: Record: CCCN(CCC)C1C=CC(O)C(O)C1O (racemic)
Result: 36%

Task: Record: OC1C=CC(NCCc2ccccc2)C(O)C1O (racemic)
Result: 86%

Task: Record: Oc1ccc(CNC2C=CC(O)C(O)C2O)cc1 (stereo in doubt)
Result: 26%

Task: Record: OC1C=CC(NCc2ccc(Oc3ccccc3)cc2)C(O)C1O (stereo in doubt; 4j)
Result: 97%

Task: Record: COc1ccc(CNC2C=CC(O)C(O)C2O)cc1 (stereo in doubt)
Result: 51%

Task: Record: OC1C=CC(N(CCc2ccccc2)CCc2ccccc2)C(O)C1O (racemic)
Result: 36%

Task: Record: OC1C=CC(NCc2ccccc2)C(O)C1O (stereo in doubt; 4e)
Result: 96%

====

- Run Description: Inhibition against Alpha Glucosidase from yeast at 1 mM; (ni=no inhibition)
Activity calls are given as the source filed them. The calls are words filed in the database; no cut-off is given here.
Endpoint: inhibition

Task: I have this molecule here, CCCN(CCC)C1C=CC(O)C(O)C1O (racemic) , and I need its recorded inhibition.
Result: inactive

Task: Record: OC1C=CC(NCc2ccc(-c3ccccc3)cc2)C(O)C1O (stereo in doubt; 4i)
Result: inactive

Task: Record: CCCNC1C=CC(O)C(O)C1O (racemic)
Result: inactive

====

- Tested Target: Beta-glucosidase A (Caldicellulosiruptor saccharolyticus) (UniProt P10482)
- Sequence (P10482 whole entry): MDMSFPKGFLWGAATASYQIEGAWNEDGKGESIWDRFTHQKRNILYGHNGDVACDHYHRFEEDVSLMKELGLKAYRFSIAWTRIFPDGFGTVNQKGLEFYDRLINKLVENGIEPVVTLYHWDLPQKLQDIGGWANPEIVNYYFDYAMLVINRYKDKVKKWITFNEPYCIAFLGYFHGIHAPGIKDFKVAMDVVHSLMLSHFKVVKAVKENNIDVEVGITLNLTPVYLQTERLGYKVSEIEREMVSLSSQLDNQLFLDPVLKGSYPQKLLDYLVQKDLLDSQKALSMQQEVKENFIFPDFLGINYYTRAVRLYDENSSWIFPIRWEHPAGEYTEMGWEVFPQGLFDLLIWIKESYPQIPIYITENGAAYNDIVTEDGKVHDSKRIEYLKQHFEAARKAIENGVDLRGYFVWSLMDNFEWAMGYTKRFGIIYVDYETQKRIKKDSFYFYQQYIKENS
- Run Description: Inhibition against Beta Glucosidase from Caldocellum saccharolyticum at 1 mM; (ni=no inhibition)
The source made the active and inactive calls. The calls are words filed in the database; no cut-off is given here.
Endpoint: inhibition

Task: I have this molecule here, OC1C=CC(N(CCc2ccccc2)CCc2ccccc2)C(O)C1O (racemic) , and I need its recorded inhibition.
Result: inactive

Task: Record: OC1C=CC(NCc2ccc(-c3ccccc3)cc2)C(O)C1O (stereo in doubt)
Result: inactive

Task: Record: NC1C=CC(O)C(O)C1O (single isomer, unassigned; (-))
Result: inactive
